System: 885724-159-R-J1-PDC complex spheroid viability
Assay: Anticancer human tumor 885724-159-R-J1-PDC patient-derived pancreatic adenocarcinoma cell line growth inhibition [POLQ]
Conditions: second compound 3.16 µM; first compound 0.00316 µM; active compounds read low
endpointName: viability, T/C (%)
// note: answer is a bare numeric in %

For COc1cccc(OCCCN)c1-c1cc(Nc2cnc(C#N)cn2)n[nH]1 + Cc1cccc(N(C)C(=O)C2C(O)CCN2c2nc(C)cc(C(F)(F)F)c2C#N)c1 , what is its reported viability, T/C?
71.8

For COc1cccc(OCCCN)c1-c1cc(Nc2cnc(C#N)cn2)n[nH]1 + COC1C(OC(N)=O)C(O)C(Oc2ccc3c(O)c(NC(=O)c4ccc(O)c(CC=C(C)C)c4)c(=O)oc3c2C)OC1(C)C , what is its reported viability, T/C?
58.7

For CC[C@@]1(O)C(=O)OCc2c1cc1n(c2=O)Cc2cc3c(CN(C)C)c(O)ccc3nc2-1 + COC1C(OC(N)=O)C(O)C(Oc2ccc3c(O)c(NC(=O)c4ccc(O)c(CC=C(C)C)c4)c(=O)oc3c2C)OC1(C)C , what is its reported viability, T/C?
97

For CC[C@@]1(O)C(=O)OCc2c1cc1n(c2=O)Cc2cc3c(CN(C)C)c(O)ccc3nc2-1 + Nc1ccc(C#CCN(C(=O)Cc2ncc(C(F)(F)F)cc2C(F)(F)F)c2ccc(F)cc2)nn1 , what is its reported viability, T/C?
98.5

For CC[C@@]1(O)C(=O)OCc2c1cc1n(c2=O)Cc2cc3c(CN(C)C)c(O)ccc3nc2-1 + Cc1cccc(N(C)C(=O)C2C(O)CCN2c2nc(C)cc(C(F)(F)F)c2C#N)c1 , what is its reported viability, T/C?
98.8

----------
Give measured viability, T/C for each item. Keep answers brief.
Tested on: 885724-159-R-J1-PDC complex spheroid viability
Experiment: Anticancer human tumor 885724-159-R-J1-PDC cell line growth inhibition [POLQ];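 note: spheroids exposed to compounds for 7 days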
Settings: second compound 3.16 µM; first compound 0.0316 µM; active compounds read low
// note: answer is a bare numeric in %

For C=CC(=O)N1CCN(c2nc(=O)n(-c3c(C)ccnc3C(C)C)c3nc(-c4c(O)cccc4F)c(F)cc23)C(C)C1 (stereo unspecified) + COC1C(OC(N)=O)C(O)C(Oc2ccc3c(O)c(NC(=O)c4ccc(O)c(CC=C(C)C)c4)c(=O)oc3c2C)OC1(C)C , what is its reported viability, T/C?
102

For CC1COCCN1c1cc(-c2ccnn2C)c2ccnc(-c3ccn[nH]3)c2n1 (stereo unspecified) + Cc1cccc(N(C)C(=O)C2C(O)CCN2c2nc(C)cc(C(F)(F)F)c2C#N)c1 , what is its reported viability, T/C?
77.8

For COc1cccc(OCCCN)c1-c1cc(Nc2cnc(C#N)cn2)n[nH]1 + Cc1cccc(N(C)C(=O)C2C(O)CCN2c2nc(C)cc(C(F)(F)F)c2C#N)c1 , what is its reported viability, T/C?
47.5

For CCc1cc2c(N3CCc4c(cc(Cn5ccnc5)cc4-c4cn(C)nc4C(F)(F)F)C3=O)cc(C)nc2c(OC)n1 + Nc1ccc(C#CCN(C(=O)Cc2ncc(C(F)(F)F)cc2C(F)(F)F)c2ccc(F)cc2)nn1 , what is its reported viability, T/C?
79.3

For CC1COCCN1c1cc(C2(S(C)(=N)=O)CC2)nc(-c2ccnc3[nH]ccc23)n1 (stereo unspecified) + Cc1cccc(N(C)C(=O)C2C(O)CCN2c2nc(C)cc(C(F)(F)F)c2C#N)c1 , what is its reported viability, T/C?
98.5

For COc1cc2cc(C(=O)CCC(=O)O)sc2cc1OC + COC1C(OC(N)=O)C(O)C(Oc2ccc3c(O)c(NC(=O)c4ccc(O)c(CC=C(C)C)c4)c(=O)oc3c2C)OC1(C)C , what is its reported viability, T/C?
100

For C=CCn1c(=O)c2cnc(Nc3ccc(N4CCN(C)CC4)cc3)nc2n1-c1cccc(C(C)(C)O)n1 + COC1C(OC(N)=O)C(O)C(Oc2ccc3c(O)c(NC(=O)c4ccc(O)c(CC=C(C)C)c4)c(=O)oc3c2C)OC1(C)C , what is its reported viability, T/C?
90.1

For CC1COCCN1c1cc(-c2ccnn2C)c2ccnc(-c3ccn[nH]3)c2n1 (stereo unspecified) + Nc1ccc(C#CCN(C(=O)Cc2ncc(C(F)(F)F)cc2C(F)(F)F)c2ccc(F)cc2)nn1 , what is its reported viability, T/C?
95.9

For CC(C)n1c(=O)n(C)c2cnc3cc(F)c(-c4ccc(OCCCN5CCCCC5)nc4)cc3c21 + Nc1ccc(C#CCN(C(=O)Cc2ncc(C(F)(F)F)cc2C(F)(F)F)c2ccc(F)cc2)nn1 , what is its reported viability, T/C?
98.4

For COc1cccc2c1C(=O)c1c(O)c3c(c(O)c1C2=O)CC(O)(C(=O)CO)CC3OC1CC(N)C(O)C(C)O1 (stereo unspecified) + Nc1ccc(C#CCN(C(=O)Cc2ncc(C(F)(F)F)cc2C(F)(F)F)c2ccc(F)cc2)nn1 , what is its reported viability, T/C?
74.9

For Nc1ccn(C2OC(CO)C(O)C2(F)F)c(=O)n1 (stereo unspecified) + COC1C(OC(N)=O)C(O)C(Oc2ccc3c(O)c(NC(=O)c4ccc(O)c(CC=C(C)C)c4)c(=O)oc3c2C)OC1(C)C , what is its reported viability, T/C?
62.2

All values here come from PubChem BioAssay AID1963832.
